Listed here: items and their measured soluble fraction (log2).
assay: soluble fraction after stress (log2 fold change); higher = more stays soluble; pooled small domains, quantitative proteomics; conditions: stress: 75 degC;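 further: 20 min heating vs room temperature control held 20 min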
Answer with a number only.

{"entry_sequence": "HMSVDAMDEANERKMAKTFNMIVLGGLLKIRPIVSIESVIKALRKTLPERHHHLIPMNEEAIHIGMDII", "soluble fraction (log2)": 0.0832}
{"entry_sequence": "HMHHDQQQITAELARIARNGLPGLTADNAIISRLDALNLLINIHDDRGADATPLRGLLPAIADELLRLT", "soluble fraction (log2)": 0.056}
{"entry_sequence": "HMKYRPGDVVTLRVARMGEMGAFLDAGTGNTNDDILLHKMQQTEEIKAGQDVKVYLYLDPNRRLTASMKL", "soluble fraction (log2)": -0.835}

Here is the next item to consider.
Asked: Tell us which soluble fraction (log2) value is on record for `HMSRARSRQTSMLEAVAGLGPARRRALLKQFGGLQGVLRAGIEDLSRAPGIGPALAQAIFEHLHPGA`
Given back: -0.482

###

assay: soluble fraction after stress (log2 fold change); higher = more stays soluble; pooled small domains, quantitative proteomics; details: stress: 75 degC
Each entry belongs to exactly one class, chosen by where its soluble fraction (log2) falls: lowest = under -0.9, middle = from -0.9 up to -0.2, highest = -0.2 and over

Below are worked cases with known answers.
{"entry_sequence": "HMEIFSIEPDSYLGSGEEIASYYREGVTVIVNMAKLSDAESLRMVDFMSGLKLALLGNIKRITKHVYLLTP", "group_label": "highest"}
{"entry_sequence": "HMQNLSELAYVNLRDALMQGQMKPGEELPLRPISRSFGISATPMREALLRLVTESALEMDSRGRISVP", "group_label": "middle"}
{"entry_sequence": "HMEKTIQIYDNIIIKDFAEKMEVSPSQVITKLIGLGVMANLNQPIDINSAVIVGKEFGFNVESM", "group_label": "lowest"}
{"entry_sequence": "HMAHLSPNDAARLVGVSRPLLNQILDEGRITFFETAGGHRKIKLAAVLAYIKERDEVAAQLAAART", "group_label": "middle"}

Asked: Pick a category. Item: `HMGDSFLDHKKELQSMILSRLDLSREVPDEEIKDIIDELIIAQSKKLFLSLNDRGKLRQELFYSIRK`
Given back: lowest

Asked: Pick a category. Item: `HMKSSTEIIYSDFLREVSNGQISEVTIQGDFVRGLFLSGSSFQTYAPKDSNLINILRDKKVRIKVHPP`
Given back: lowest

Asked: Pick a category. Item: `HMGIEQVELASRVRDAVDSLPHHLREIILLSYFQKMSYNQIAETLQVPLGTVKSRLHAAVASFAQAWTQSS`
Given back: middle

Asked: Pick a category. Item: `HMAPEKLVHELVGLSLRAGNLDLLAATLSAHKTVLSKESTAEYVKAGLAIEPNHLPLRVLAEQDLGWS`
Given back: lowest

Asked: Pick a category. Item: `HMTTLDTVARQLRDRIREQLDPTGEMSDESLLRTIEEAVYRYSSSGHVLTANEKETVIRRIFHSFR`
Given back: highest

Asked: Pick a category. Item: `HMHEAILNQIRNEELMLYIGELSDAQQDVILLKYFHQMTFKEIAESFSIPISTVKTRHTAALKKLSTLWK`
Given back: middle

###

assay: soluble fraction after stress (log2 fold change); higher = more stays soluble; pooled small domains, quantitative proteomics; conditions: stress: 75 degC
Quick rule for you: soluble fraction (log2) at -1 or higher means T, lower means F.

Below are worked cases with known answers.
{"entry_sequence": "HMKRSVIVTAERAEVRQKADEGSALVFEAEKNVSLEYLEAAPGGWVKVRHLDGQSGFVRGNQI", "group_label": "T"}
{"entry_sequence": "HMSFNSQENKSVLWQFLLENNFFIGLSDKKFNKVKDIFEKNIQSISIVNDSISNKNKILIQKMMEELELL", "group_label": "F"}
{"entry_sequence": "HMNDIDRFIEALIEQDTLPGTNSRINEDVISEMKMMTSVEDIKAYAIATVGLTGGQVNNALINSGL", "group_label": "T"}
{"entry_sequence": "HMVPEETKQFINQLNHGSLSIRMNAANNLEKLGLLAIPEIEAALPKAHGEAAFRLPRLLHALVLRETEYF", "group_label": "T"}
{"entry_sequence": "HMTQDFEPGGQVFSRGEWLTIIRVNKSNGAVSSVTTPNYSFLGYSGTMKVTPDRITDYKAPSAEEAAVAS", "group_label": "T"}
{"entry_sequence": "HMSDAVQLGLRLRAARERRGLSQQAVADALGLPRTAVTNMESGNRAVSTLELTKLAALYGQSTAFFLSP", "group_label": "F"}
{"entry_sequence": "HMDLPATVPNLEGLTEVTARNKLTVAGLSLGEVKEVESDKEKGTVVGQSIAYGKRVTKGTKVDIEISSGK", "group_label": "T"}
{"entry_sequence": "HMIELTTDYKKRVVEALVSARENYSGSDSDFARKWSIDKTVYSRLKKGYQEGLLSVGKYIELGMELNVSSR", "group_label": "F"}
{"entry_sequence": "HMAGIPIHMSQLKQIILLLSQGYPIKGIARETGVSRNTIKGYLQTLTSQDLNVTDALKLENIQLEYLLRSP", "group_label": "F"}
{"entry_sequence": "HMIEGEQVRLLRLLERQEGGMLPLGDKSPASDILLLTGMSKKTFKMAVGALYKAQMITMTPTSIKLVK", "group_label": "F"}

Asked: Is the recorded value of soluble fraction (log2) equal to or greater than -1 for this sequence? `HMSNRIDKIKLNHWLNIRKTSLDVLNNLLSKHLNHKINFENLENLDEQAIEKISEVLSIPKNKLLINDDVP`
Given back: T

Asked: Is the recorded value of soluble fraction (log2) equal to or greater than -1 for this sequence? `HMGGASVTDQQIRDFVSAHTDDPMAIYKAAVANGISSARLAQVTGISIADIEAFVRKNNLPSF`
Given back: T

Asked: Is the recorded value of soluble fraction (log2) equal to or greater than -1 for this sequence? `HMSPSQFRSKSLLVEINFASRQMDGEILQGDYAGKRLSELTEAEVQELTAWLKQSDRESFVLLQAYLLRSG`
Given back: F

Asked: Is the recorded value of soluble fraction (log2) equal to or greater than -1 for this sequence? `HMLLNLSPIETQVLRLIQQDKKVTYESIGKELTIGQTKVYKVLGHLKELNVIERIGGRTYGHWHILL`
Given back: F

Asked: Is the recorded value of soluble fraction (log2) equal to or greater than -1 for this sequence? `HMQQAVTMQKPGRLLRNADGNGGAVRDLDVGMMLYPTGNRSELMWEVDDELGNRGWVNSTLFGLS`
Given back: T

###

Listed here: items and their measured soluble fraction (log2).
experiment: soluble fraction after stress (log2 fold change); higher = more stays soluble; pooled small domains, quantitative proteomics; settings: stress: 75 degC
Answer with a number only.

Asked: Tell us which soluble fraction (log2) value is on record for `HMGVDKLTPREREVLALMAQGASNREIEGKLVLTAGAVSKHVANVFMKLGFSPEDENRRVKAVLAWLRTK`
Given back: -2.86

Asked: Tell us which soluble fraction (log2) value is on record for `HMLNKRQAEILAEVSRLKEITPSELYKLQPNVSSRTLRRDMDVLVNKGLVSQDGSTKSTKYTYL`
Given back: 0.193

Asked: Tell us which soluble fraction (log2) value is on record for `HMRKKTYEIITDDLRRMIEAGLIRPGEKLGAIDQLAAKYRVGRSTVREALSHLKALGLVESRQGGGTYVTK`
Given back: 0.375

Asked: Tell us which soluble fraction (log2) value is on record for `HMSSVRDNGDLELVPGDRIRHDDYGEGRVTAVTGVGSKRIAHAVFDSVGERKLLIKLSPIEKI`
Given back: -0.0574

Asked: Tell us which soluble fraction (log2) value is on record for `HMDTNELIDRYVNEVGQHLPRKTRADIEMELRSLLLDTLEEQSGGEPTPKMAAEVLREFGHPEEIAAQYH`
Given back: -0.386

Asked: Tell us which soluble fraction (log2) value is on record for `HMKSILDDVVGLGPVRKKALLSAAGGFRKLRDMDVDEVIGLGAVPEEVAREVVTVLAQYNGERDRVEGL`
Given back: -0.146

Asked: Tell us which soluble fraction (log2) value is on record for `HMEYLIENYGSVINQARMKKGMTQEQLSSKTGVSQAYIRSIESQNMKPTDAVARKIEFELGIKLFE`
Given back: -1.05

Asked: Tell us which soluble fraction (log2) value is on record for `HMKYSYAELTKLQEQIAQDRNAPLTVPNALGIGLDERNNVIEITVNIADEAAAKAYYLQKYGDRISLKTTD`
Given back: -0.317

Asked: Tell us which soluble fraction (log2) value is on record for `HMQGATVYIKSDDIGKTTNEQGSFNFDKLKKNRYTLEISFIGYETKNLQAYTDRENIVQLNRKS`
Given back: -0.307

Asked: Tell us which soluble fraction (log2) value is on record for `HMKNVEEMILGKLKRKVSENLENASFEEIILVDAEKSVYKGIIKANYIEYYFRVNLSTGEVLSWKLK`
Given back: -0.86

Asked: Tell us which soluble fraction (log2) value is on record for `HMLSSREEKILNYLNEHQIITRKKAQELLETSQSTAGRVLKIMVDNGLIVQYGGSRSIWYELIK`
Given back: -1.79

Asked: Tell us which soluble fraction (log2) value is on record for `HMGVKIELNENEQAIFAAMQKQVEAVLPDLRAQFADMSNKAWDNSVKTLTKNNLLKVSKEAEILFIRL`
Given back: -0.939

Asked: Tell us which soluble fraction (log2) value is on record for `HMDFVKGDTVVFIDAFMPDHLMTIHKVQGEGILLDGNHKFALAHLIRHASTVELNAKRRLSLTEQS`
Given back: -2.42

Asked: Tell us which soluble fraction (log2) value is on record for `HMESFGVAIKRLREAQGWTRADFLRQLGKTGYYMHATTLKRIEEGEQIAKVHEAVIISRLFGVTVEEMG`
Given back: -3.1

Asked: Tell us which soluble fraction (log2) value is on record for `HMTRTISKVAKELAINIETVRFYERRGLIEQPPKPELGYRHYPDETVNRIRFIKRAQELGFTLEEIANLLS`
Given back: -1.66

Asked: Tell us which soluble fraction (log2) value is on record for `HMTTQVNTVKIQLANGYEMTVLTSKTNVKEILEDNNIILENNEKVTPNIDEEISSNKTIKITDKSN`
Given back: 0.055

Asked: Tell us which soluble fraction (log2) value is on record for `HMLVYQRLDKDNFIFEGKTLLNDIYKILDIESNYFEAIRGEADSIAGLLLEIAKSIPTINTEF`
Given back: -0.362
